These entries and their values trace back to patent US20110065675A1.

Biological target: human CD40/CD154 (Homo sapiens)
Construct: CD154 (soluble human, FLAG-tagged, recombinant from Alexis Biochemicals; MW=18 kDa); purchased Alexis Biochemicals
Experiment: Human CD40/CD154 binding inhibition assay (cell-free, plate-based)
Settings: cell-free binding
We use 2 µg/mL as the dividing line for Human CD40/CD154 IC50: on or above the line is Satisfied, below is Not satisfied.

Can O=C([O-])C1=NN(c2ccc(S(=O)(=O)[O-])cc2)C(=O)C1N=Nc1ccc(S(=O)(=O)[O-])cc1.[Na+].[Na+].[Na+] (stereo not shown) [Tartrazine (FD&C yellow 5), Tartrazine, reference compound] be said to have Human CD40/CD154 IC50 at or above 2 µg/mL?
Satisfied

Can COc1cc(-c2ccc(N=Nc3c(S(=O)(=O)[O-])cc4cc(S(=O)(=O)[O-])cc(N)c4c3O)c(OC)c2)ccc1N=Nc1c(S(=O)(=O)[O-])cc2cc(S(=O)(=O)[O-])cc(N)c2c1O.[Na+].[Na+].[Na+].[Na+] be said to have Human CD40/CD154 IC50 at or above 2 µg/mL?
Not satisfied

Can O=S(=O)([O-])c1cc(S(=O)(=O)[O-])c2c(N=Nc3ccc(N=Nc4ccccc4)cc3)c(O)ccc2c1.[Na+].[Na+] [Brilliant crocein (crocein scarlet MOO), Brilliant crocein, reference compound] be said to have Human CD40/CD154 IC50 at or above 2 µg/mL?
Satisfied

Can O=C(Nc1ccc2c(O)c(N=Nc3ccc(N=Nc4ccc(S(=O)(=O)[O-])cc4)cc3)c(S(=O)(=O)[O-])cc2c1)c1ccccc1.[Na+].[Na+] be said to have Human CD40/CD154 IC50 at or above 2 µg/mL?
Satisfied

Can O=C(Nc1ccc2c(O)c(N=Nc3ccc(N=Nc4ccc(S(=O)(=O)[O-])cc4)cc3S(=O)(=O)[O-])c(S(=O)(=O)[O-])cc2c1)Nc1ccc2c(O)c(N=Nc3ccc(N=Nc4ccc(S(=O)(=O)[O-])cc4)cc3S(=O)(=O)[O-])c(S(=O)(=O)[O-])cc2c1.[Na+].[Na+].[Na+].[Na+].[Na+].[Na+] be said to have Human CD40/CD154 IC50 at or above 2 µg/mL?
Not satisfied

Can Nc1ccc2c(O)c(N=Nc3ccc(N=Nc4ccc(N=Nc5cc(S(=O)(=O)[O-])c6cccc(S(=O)(=O)[O-])c6c5)c5ccccc45)c4ccc(S(=O)(=O)[O-])cc34)c(S(=O)(=O)[O-])cc2c1.[Na+].[Na+].[Na+].[Na+] be said to have Human CD40/CD154 IC50 at or above 2 µg/mL?
Satisfied

Can Cc1cc(S(=O)(=O)[O-])ccc1N=Nc1ccc(N=Nc2c(O)ccc3cccc(S(=O)(=O)[O-])c23)c(C)c1.[Na+].[Na+] be said to have Human CD40/CD154 IC50 at or above 2 µg/mL?
Satisfied

* * *

Please go through the items and note down their Human TNFR1/TNFα log IC50.
Target: human TNF-R1/TNFα (Homo sapiens, UniProt P01375+P19438)
Sequence (P01375 77-233 limits assumed): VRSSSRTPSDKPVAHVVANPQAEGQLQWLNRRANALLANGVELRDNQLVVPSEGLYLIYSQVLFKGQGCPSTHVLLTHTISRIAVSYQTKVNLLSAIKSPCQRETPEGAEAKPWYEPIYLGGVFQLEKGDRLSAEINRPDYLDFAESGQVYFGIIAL
Sequence (P19438 30-211 limits assumed): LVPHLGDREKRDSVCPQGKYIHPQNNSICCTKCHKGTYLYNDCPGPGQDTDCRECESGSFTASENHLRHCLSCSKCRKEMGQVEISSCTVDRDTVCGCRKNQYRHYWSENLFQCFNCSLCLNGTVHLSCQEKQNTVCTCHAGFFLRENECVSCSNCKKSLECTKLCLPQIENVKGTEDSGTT
Assay: Specificity test: human TNF-R1/TNFα binding inhibition assay
Details: log of IC50, cell-free binding
# answer = number (no unit)

Please give measured Human TNFR1/TNFα log IC50 of the following entry: Nc1ccc2c(O)c(N=Nc3ccc(N=Nc4ccc(N=Nc5cc(S(=O)(=O)[O-])c6cccc(S(=O)(=O)[O-])c6c5)c5ccccc45)c4ccc(S(=O)(=O)[O-])cc34)c(S(=O)(=O)[O-])cc2c1.[Na+].[Na+].[Na+].[Na+]
−4.01

Please give measured Human TNFR1/TNFα log IC50 of the following entry: Nc1ccc2cc(S(=O)(=O)[O-])cc(O)c2c1N=Nc1ccc(NC(=O)Nc2ccc(N=Nc3c(N)ccc4cc(S(=O)(=O)[O-])cc(O)c34)c(S(=O)(=O)[O-])c2)cc1S(=O)(=O)[O-].[Na+].[Na+].[Na+].[Na+]
−3.49

Please give measured Human TNFR1/TNFα log IC50 of the following entry: Nc1c(N=Nc2cccc([N+](=O)[O-])c2)c(S(=O)(=O)[O-])cc2cc(S(=O)(=O)[O-])c(N=Nc3ccccc3)c(O)c12.[Na+].[Na+]
−3.33

Please give measured Human TNFR1/TNFα log IC50 of the following entry: O.O=C([O-])c1ccccc1-c1c2cc(I)c(=O)c(I)c-2oc2c(I)c([O-])c(I)cc12.[Na+].[Na+] [Erythrosin B (FD&C red 3), Erythrosin B, reference compound]
−5.04

* * *

Target: mouse CD40/CD154 (mCD40:mCD154) (Mus musculus)
Construct: (FLAG-tagged) mCD154 (recombinant mouse CD40L, soluble, Alexis Biochemicals); purchased R&D Systems (mCD40/Fc); Alexis Biochemicals (mCD154)
Sequence (P27548 112-260 limits assumed): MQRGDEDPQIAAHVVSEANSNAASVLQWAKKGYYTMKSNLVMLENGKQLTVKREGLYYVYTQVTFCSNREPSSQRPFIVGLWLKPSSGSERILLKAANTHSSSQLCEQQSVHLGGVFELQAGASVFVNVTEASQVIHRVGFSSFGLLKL
Assay: Murine CD40/CD154 binding inhibition assay
Conditions: cell-free binding; read-out: Mouse CD40/CD154 IC50
readout-label: pIC50
// pIC50 here means minus log10 of the molar concentration (mol/L)

State recorded pIC50 with mouse CD40/CD154 (mCD40:mCD154) (Mus musculus), entry Cc1ccc(C(=O)Nc2ccc(S(=O)(=O)O)c3cc(S(=O)(=O)O)cc(S(=O)(=O)O)c23)cc1NC(=O)c1cccc(NC(=O)Nc2cccc(C(=O)Nc3cc(C(=O)Nc4ccc(S(=O)(=O)O)c5cc(S(=O)(=O)O)cc(S(=O)(=O)O)c45)ccc3C)c2)c1 [Suramin, reference compound] , no comment.
5.35

State recorded pIC50 with mouse CD40/CD154 (mCD40:mCD154) (Mus musculus), entry O=C(Nc1ccc2c(O)c(N=Nc3ccc(N=Nc4ccc(S(=O)(=O)[O-])cc4)cc3S(=O)(=O)[O-])c(S(=O)(=O)[O-])cc2c1)Nc1ccc2c(O)c(N=Nc3ccc(N=Nc4ccc(S(=O)(=O)[O-])cc4)cc3S(=O)(=O)[O-])c(S(=O)(=O)[O-])cc2c1.[Na+].[Na+].[Na+].[Na+].[Na+].[Na+] , no comment.
5.23

State recorded pIC50 with mouse CD40/CD154 (mCD40:mCD154) (Mus musculus), entry Nc1ccc2cc(S(=O)(=O)[O-])cc(O)c2c1N=Nc1ccc(NC(=O)Nc2ccc(N=Nc3c(N)ccc4cc(S(=O)(=O)[O-])cc(O)c34)c(S(=O)(=O)[O-])c2)cc1S(=O)(=O)[O-].[Na+].[Na+].[Na+].[Na+] , no comment.
5.13

State recorded pIC50 with mouse CD40/CD154 (mCD40:mCD154) (Mus musculus), entry Cc1cc(S(=O)(=O)[O-])ccc1N=Nc1ccc(N=Nc2c(O)ccc3cccc(S(=O)(=O)[O-])c23)c(C)c1.[Na+].[Na+] , no comment.
4.86

* * *

Biological target: human CD40/CD154 (Homo sapiens, UniProt P29965)
Construct: CD154 (soluble human, FLAG-tagged, recombinant from Alexis Biochemicals; MW=18 kDa); purchased Alexis Biochemicals
Sequence (P29965 113-261 limits assumed): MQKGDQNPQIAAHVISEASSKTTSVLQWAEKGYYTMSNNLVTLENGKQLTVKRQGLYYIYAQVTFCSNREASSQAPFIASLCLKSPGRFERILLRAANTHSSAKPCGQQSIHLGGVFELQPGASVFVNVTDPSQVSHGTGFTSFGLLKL
Assay: Human CD40/CD154 binding inhibition assay (cell-free, plate-based)
Conditions: cell-free binding; read-out: Human CD40/CD154 IC50 (ug/mL) (converted)
Could you please mark T for values of IC50 below 5 µM and F for values at or above it?

Is IC50 strictly under 5 µM for the entry Cc1ccc(C(=O)Nc2ccc(S(=O)(=O)O)c3cc(S(=O)(=O)O)cc(S(=O)(=O)O)c23)cc1NC(=O)c1cccc(NC(=O)Nc2cccc(C(=O)Nc3cc(C(=O)Nc4ccc(S(=O)(=O)O)c5cc(S(=O)(=O)O)cc(S(=O)(=O)O)c45)ccc3C)c2)c1 [Suramin, reference compound] ?
F

Is IC50 strictly under 5 µM for the entry Cc1cc(-c2ccc(/N=N/c3c(S(=O)(=O)O)cc4cc(S(=O)(=O)O)cc(N)c4c3O)c(C)c2)ccc1/N=N/c1c(S(=O)(=O)O)cc2cc(S(=O)(=O)O)cc(N)c2c1O ?
T

Is IC50 strictly under 5 µM for the entry Cc1cc(-c2ccc(/N=N/c3ccc4c(S(=O)(=O)O)cc(S(=O)(=O)O)c(N)c4c3O)c(C)c2)ccc1/N=N/c1ccc2c(S(=O)(=O)O)cc(S(=O)(=O)O)c(N)c2c1O ?
T

Is IC50 strictly under 5 µM for the entry O=C(Nc1ccc(C(=O)Nc2ccc(C(=O)Nc3ccc(S(=O)(=O)O)c4cc(S(=O)(=O)O)cc(S(=O)(=O)O)c34)cc2)cc1)Nc1ccc(C(=O)Nc2ccc(C(=O)Nc3ccc(S(=O)(=O)O)c4cc(S(=O)(=O)O)cc(S(=O)(=O)O)c34)cc2)cc1 ?
F

Is IC50 strictly under 5 µM for the entry Nc1c(/N=N/c2ccc(-c3ccc(/N=N/c4cc(S(=O)(=O)O)c5ccccc5c4N)cc3)cc2)cc(S(=O)(=O)O)c2ccccc12 ?
F

* * *

Molecular target: human CD40/CD154 (Homo sapiens, UniProt P29965)
Construct: CD154 (soluble human, FLAG-tagged, recombinant from Alexis Biochemicals; MW=18 kDa); purchased Alexis Biochemicals
Test: Human CD40/CD154 binding inhibition assay (cell-free, plate-based)
Conditions: cell-free binding; read-out: Human CD40/CD154 IC50
readout-label: pIC50
// pIC50 here means minus log10 of the molar concentration (mol/L)

Please give measured pIC50 of the following entry: O=S(=O)([O-])c1cccc(N=Nc2ccc(N=Nc3ccc(Nc4ccccc4)c4c(S(=O)(=O)[O-])cccc34)c3ccccc23)c1.[Na+].[Na+] [Acid blue 113, acid blue 113]
5.96

Please give measured pIC50 of the following entry: Cc1ccc(C(=O)Nc2ccc(S(=O)(=O)O)c3cc(S(=O)(=O)O)cc(S(=O)(=O)O)c23)cc1NC(=O)c1cccc(NC(=O)Nc2cccc(C(=O)Nc3cc(C(=O)Nc4ccc(S(=O)(=O)O)c5cc(S(=O)(=O)O)cc(S(=O)(=O)O)c45)ccc3C)c2)c1 [Suramin, reference compound]
4.84

Please give measured pIC50 of the following entry: COc1ccccc1NC(=O)C(N=Nc1ccc(-c2nc3ccc(C)c(S(=O)(=O)[O-])c3s2)cc1S(=O)(=O)[O-])C(C)=O.[Na+].[Na+] (stereo not shown) [Direct yellow 27, direct yellow 27]
5.72

Please give measured pIC50 of the following entry: Nc1ccc2cc(S(=O)(=O)[O-])cc(O)c2c1N=Nc1ccc(NC(=O)Nc2ccc(N=Nc3c(N)ccc4cc(S(=O)(=O)[O-])cc(O)c34)c(S(=O)(=O)[O-])c2)cc1S(=O)(=O)[O-].[Na+].[Na+].[Na+].[Na+] [Direct red 75 (chlorazol fast pink), direct red 75]
5.32
